Biological target: CYP11B1 (Homo sapiens, UniProt P15538)
Sequence (P15538 whole entry): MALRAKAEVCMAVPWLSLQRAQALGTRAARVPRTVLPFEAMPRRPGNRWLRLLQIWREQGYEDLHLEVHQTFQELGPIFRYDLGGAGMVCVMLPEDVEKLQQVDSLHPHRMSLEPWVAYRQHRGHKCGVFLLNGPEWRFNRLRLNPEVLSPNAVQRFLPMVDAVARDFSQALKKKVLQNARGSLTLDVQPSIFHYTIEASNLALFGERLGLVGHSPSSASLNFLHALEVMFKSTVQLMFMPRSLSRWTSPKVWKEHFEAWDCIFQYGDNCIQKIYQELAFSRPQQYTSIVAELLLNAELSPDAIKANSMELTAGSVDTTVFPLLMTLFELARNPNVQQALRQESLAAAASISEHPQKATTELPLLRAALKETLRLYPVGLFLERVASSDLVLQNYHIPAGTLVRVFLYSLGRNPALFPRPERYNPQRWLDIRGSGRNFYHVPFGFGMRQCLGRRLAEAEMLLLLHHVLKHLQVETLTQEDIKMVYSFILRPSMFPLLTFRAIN
Experiment: Inhibition of human CYP11B1 expressed in hamster V79MZh cells using [1,2-3H]-11-deoxy-corticosterone as substrate
Type: cell-based
Conditions: human, hamster V79MZh cells expressing human CYP11B1, probe [1,2-3H]-11-deoxy-corticosterone

{"compound": "O=C1CCc2cc(C(C3CC3)n3ccnc3)cc3c2N1CC3 (stereo unspecified)", "unit.symbol": "nM", "IC50": 2.2}

----------
Biological target: Cytochrome P450 11B1, mitochondrial (Homo sapiens)
Sequence (P15538 whole entry): as above
Test: Inhibition of human CYP11B1 expressed in hamster V79MZh cells using [1,2-3H]-11-deoxy-corticosterone as substrate
pIC50: −log10 of the molar value.
// label = satisfied if pIC50 is not less than 6, otherwise not satisfied

{"molecule": "O=C1CCc2cc(C(c3ccncc3)c3cccc(Cl)c3)cc3c2N1CC3 (stereo unspecified)", "label.class": "satisfied"}
{"molecule": "CC(c1ccncc1)c1cc2c3c(c1)CCN3C(=O)CC2 (stereo unspecified)", "label.class": "satisfied"}
{"molecule": "O=C1CCc2cc(Cc3cccnc3)cc3c2N1CC3", "label.class": "satisfied"}
{"molecule": "COc1ccccc1C(c1ccncc1)c1cc2c3c(c1)CCN3C(=O)CC2 (stereo unspecified)", "label.class": "satisfied"}
{"molecule": "O=C1CCc2cc(C(c3ccncc3)c3cc(C(F)(F)F)cc(C(F)(F)F)c3)cc3c2N1CC3 (stereo unspecified)", "label.class": "not satisfied"}
{"molecule": "O=C1CCc2cc(C(c3ccccc3)c3ccncc3)cc3c2N1CC3 (stereo unspecified)", "label.class": "not satisfied"}
{"molecule": "O=C1CCc2cc(C(c3ccncc3)c3cccc(F)c3)cc3c2N1CC3 (stereo unspecified)", "label.class": "satisfied"}
{"molecule": "O=C1CCc2cc(C(c3ccncc3)c3ccc(F)cc3)cc3c2N1CC3 (stereo unspecified)", "label.class": "satisfied"}
